- Tested on: Pseudomonas aeruginosa 100609
- Assay type: cell-based
- SETUP_CONDITIONS: Table 9; in µg/mL
// values below are reported MIC P. aeruginosa Tb 100609
Please state the value as a number alone, without comment.

- CHEMICAL_SMILES: "CC(C)C[C@H](NC(=O)[C@H](C)NC(=O)[C@H](CC(C)C)NC(=O)[C@H](C)NC(=O)[C@H](CC(C)C)NC(=O)[C@H](CCCCN)NC(=O)[C@H](C)NC(=O)[C@H](CC(C)C)NC(=O)[C@H](CCCCN)NC(=O)[C@H](CCCCN)NC(=O)[C@H](C)NC(=O)[C@H](CC(C)C)NC(=O)[C@H](CCCCN)NC(=O)[C@H](C)NC(=O)[C@H](CC(C)C)NC(=O)[C@H](CCCCN)NC(=O)[C@H](CCCCN)NC(=O)[C@H](C)NC(=O)[C@@H](N)C(C)C)C(N)=O"
  MEASURED_ON: "Pseudomonas aeruginosa 100609"
  NUMERIC_VALUE: 8
- CHEMICAL_SMILES: "CC(C)C[C@H](NC(=O)[C@H](C)NC(=O)[C@H](CC(C)C)NC(=O)[C@H](CCCCN)NC(=O)[C@H](C)NC(=O)[C@H](CC(C)C)NC(=O)[C@H](CCCCN)NC(=O)[C@H](CCCCN)NC(=O)[C@H](C)NC(=O)[C@H](CC(C)C)NC(=O)[C@H](CCCCN)NC(=O)[C@H](C)NC(=O)[C@H](CC(C)C)NC(=O)[C@H](CCCCN)NC(=O)[C@H](CCCCN)NC(=O)[C@H](C)NC(=O)[C@@H](N)C(C)C)C(N)=O"
  MEASURED_ON: "Pseudomonas aeruginosa 100609"
  NUMERIC_VALUE: 4
- CHEMICAL_SMILES: "CC(C)C[C@H](NC(=O)[C@H](C)NC(=O)[C@H](CC(C)C)NC(=O)[C@H](CCCCN)NC(=O)[C@H](C)NC(=O)[C@H](CC(C)C)NC(=O)[C@H](CCCCN)NC(=O)[C@H](CCCCN)NC(=O)[C@H](C)NC(=O)[C@H](CC(C)C)NC(=O)[C@H](CCCCN)NC(=O)[C@H](C)NC(=O)[C@H](CC(C)C)NC(=O)[C@H](CCCCN)NC(=O)[C@H](CCCCN)NC(=O)[C@H](C)NC(=O)[C@@H](N)Cc1ccccc1)C(N)=O"
  MEASURED_ON: "Pseudomonas aeruginosa 100609"
  NUMERIC_VALUE: 4

For the molecule shown here, `CC(C)C[C@H](NC(=O)[C@H](C)NC(=O)[C@H](CC(C)C)NC(=O)[C@H](CCCCN)NC(=O)[C@H](C)NC(=O)[C@H](CC(C)C)NC(=O)[C@H](CCCCN)NC(=O)[C@H](CCCCN)NC(=O)[C@H](C)NC(=O)[C@H](CC(C)C)NC(=O)[C@H](CCCCN)NC(=O)[C@H](C)NC(=O)[C@H](CC(C)C)NC(=O)[C@H](CCCCN)NC(=O)[C@H](CCCCN)NC(=O)[C@H](C)NC(=O)[C@@H](N)Cc1ccccc1)C(=O)O` , give the reported MIC P. aeruginosa Tb 100609.
16

---

- EXPERIMENT_NOTES: in vitro
- Assay type: cell-based, human
- SETUP_CONDITIONS: human, human red blood cells, pH 7, hemolytic assay, concentration at 50% hemolysis, 1 hour at 37° C.; read-out: LD50
No end group written: not given here.
Parameter: log10(HC50 at 1 h). Scope: all listed entries.
In our notation, the value equals log10 of HC50 at 1 h in µg/mL.

- SUBSTANCE: "VAKLLAKLAKKLL-NH2 [P48]"
  log10(HC50 at 1 h): 2.30

# input substance: FALAAKALKKLAKKLKKLAKKAL-NH2 [P23] ; wanted: its log10(HC50 at 1 h)
2.48

Then FAKLLAKLAKKVL-NH2 [P124] ?
1.74

Input KWKLFKKKTKLFKKFAKKLAKKL-OH [P81]
0.90

And the next one, FALLKL-NH2 [P168, FALLKL-NH2] ?
2.78

Ok, now FAKKLAKKLL-NH2 [P59]
3.00

What about FAKKLAKKLAKLAL-NH2 [P45, FAKKLAKKLAKLAL-NH2] ?
2.85
